test: Nanoparticle pKa via TNS fluorescence; assay type: physicochemical; conditions: liposomes of the cationic lipid in buffer, probe 2-(p-toluidino)-6-napthalene sulfonic acid (TNS), 1 µM final, pH 2.5 to 12, read-out: pKa
attribute.measured: pKa
Answers are plain numbers.

Enquiry: Request the reported pKa associated with CCCCCCCCCCCCN(CCCCCCCCCCCC)c1nc(NCCCN)nc(NCCCN)n1
Return: 7.37

----------
test: Differential scanning calorimetry, transition temperature (Tm) of lipids; type: physicochemical; details: liposomes of pure lipid, 10 mM in 20 mM HEPES, DSC
Kindly state Tm for each of the entries shown.
One number for each entry, in °C.

Examples from the recorded data:
CCCCCCCCCCCCCCCCCCN(CCCCCCCCCCCCCCCCCC)c1nc(NCCCN)nc(NCCC(=O)O)n1 [Lipid 12] = 42
CCCCCCCCCCCCCCCCCCN(CCCCCCCCCCCCCCCCCC)c1nc(NCCS)nc(NCCC(=O)O)n1 [Lipid 6] = 40
CCCCCCCCCCCCCCCCCCN(CCCCCCCCCCCCCCCCCC)c1nc(NCCCN(C)C)nc(NCCCN(C)C)n1 [Lipid 10] = 28

Enquiry: Request the reported Tm associated with CCCCCCCCCCCCCCCCCCN(CCCCCCCCCCCCCCCCCC)c1nc(NCCCN)nc(NCCCN)n1 [Lipid 4]
Return: 33
